target: human A2b adenosine receptor (Homo sapiens (Human)); assay: A2B antagonism in cAMP cell-based assay (LANCE cAMP, HEK293 cells, 600 nM adenosine); details: values marked *: cAMP cell-based assay
Sequence (P29275 whole entry): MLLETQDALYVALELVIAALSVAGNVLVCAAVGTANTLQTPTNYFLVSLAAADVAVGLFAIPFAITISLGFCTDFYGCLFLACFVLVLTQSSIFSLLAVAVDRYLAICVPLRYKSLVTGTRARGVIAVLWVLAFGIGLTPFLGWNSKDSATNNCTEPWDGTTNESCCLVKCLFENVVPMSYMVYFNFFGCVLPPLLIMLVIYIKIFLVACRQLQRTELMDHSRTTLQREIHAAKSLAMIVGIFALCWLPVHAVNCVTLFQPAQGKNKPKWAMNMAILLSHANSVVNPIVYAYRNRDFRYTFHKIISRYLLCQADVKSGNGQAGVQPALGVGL
measurementName: IC50 (nM)

> print(dat)
                                   molecule  unittext  obsvalue
1  COc1cccc2c1nc(N)n1nc([C@@H]3CC[C@H](C)N(c4cnn(C(C)C(C)(C)O)c4)C3)nc21 (some centres unmarked) [Example 147D]        nM       5.6

(1) COc1cccc2c1nc(N)n1nc(C34CC(C3)N(c3cnn(C)c3)C4)nc21
(2) CCn1cc(N2CC[C@@H](c3nc4c5cccc(OC)c5nc(N)n4n3)C2)cn1
Would you kindly point out which of 1 and 2 has the smaller IC50 figure? # respond with the chosen item's label
2

(a) COc1cccc2c1nc(N)n1nc([C@@H]3CCCN(c4cnn5c(C)cccc45)C3)nc21
(b) COc1cccc2c1nc(N)n1nc([C@@H]3CCCN(c4cnn(CS(C)(=O)=O)c4)C3)nc21
Which of the two gives a bigger number for IC50: a or b ? // caller expects the label of the chosen entry
a
